target: human ether-à-go-go-related gene (hERG) potassium channel (human); assay: primary screen, population patch clamp on CHO cells stably expressing hERG; higher = less effect of the substance;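 further: peak tail current of the secondary pulse compared with the same well before compound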
Sequence (Q12809 whole entry, looked up): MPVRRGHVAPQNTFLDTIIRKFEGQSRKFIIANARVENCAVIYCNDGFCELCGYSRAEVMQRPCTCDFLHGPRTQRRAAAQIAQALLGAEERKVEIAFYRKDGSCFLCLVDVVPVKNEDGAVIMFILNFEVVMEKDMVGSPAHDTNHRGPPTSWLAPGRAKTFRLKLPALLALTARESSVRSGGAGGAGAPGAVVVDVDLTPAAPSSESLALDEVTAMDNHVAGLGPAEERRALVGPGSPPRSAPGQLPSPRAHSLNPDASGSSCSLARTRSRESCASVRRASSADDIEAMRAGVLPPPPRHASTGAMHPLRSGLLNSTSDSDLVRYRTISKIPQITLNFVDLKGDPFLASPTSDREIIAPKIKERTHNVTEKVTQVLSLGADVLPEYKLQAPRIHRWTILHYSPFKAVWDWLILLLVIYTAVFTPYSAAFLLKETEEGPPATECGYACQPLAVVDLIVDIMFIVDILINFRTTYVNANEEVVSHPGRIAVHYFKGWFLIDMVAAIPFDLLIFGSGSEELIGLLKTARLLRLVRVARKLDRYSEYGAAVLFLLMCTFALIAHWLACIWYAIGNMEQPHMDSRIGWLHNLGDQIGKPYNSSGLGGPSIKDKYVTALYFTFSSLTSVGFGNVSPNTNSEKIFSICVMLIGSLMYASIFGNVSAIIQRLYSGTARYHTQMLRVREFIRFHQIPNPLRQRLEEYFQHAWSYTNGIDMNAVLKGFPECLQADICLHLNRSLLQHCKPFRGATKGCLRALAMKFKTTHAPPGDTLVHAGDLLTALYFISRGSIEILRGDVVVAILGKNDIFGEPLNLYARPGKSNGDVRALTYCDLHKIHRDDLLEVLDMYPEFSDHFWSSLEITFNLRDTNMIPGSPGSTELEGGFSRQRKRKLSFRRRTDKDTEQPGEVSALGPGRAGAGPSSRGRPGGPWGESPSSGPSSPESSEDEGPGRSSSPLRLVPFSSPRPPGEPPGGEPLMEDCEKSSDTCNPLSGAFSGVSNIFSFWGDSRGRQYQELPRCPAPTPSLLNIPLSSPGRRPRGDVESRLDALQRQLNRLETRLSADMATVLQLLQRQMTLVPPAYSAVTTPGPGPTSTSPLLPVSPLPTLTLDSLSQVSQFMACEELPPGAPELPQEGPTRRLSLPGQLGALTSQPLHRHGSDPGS
The whole screen tested about 310,000 compounds, of which about 14,000 (4.5%) showed an effect of 50% or more. The effect is printed as a negative number. The full list was thinned out, with strong results kept by preference.
Known hERG current change (%, negative = inhibition) at 10uM of a selection of molecules
# number only, unit % dropped from output

Examples from the recorded data:
COc1ccc(NC(=S)N2CCC(C(=O)c3ccc(C)cc3)CC2)c(OC)c1 :: 24.7
CCc1cc(C(=O)c2ccc(OC)cc2)c(N)s1 :: -12.7
O=S(=O)(NC1CCN(Cc2ccccc2)CC1)c1ccc(Cl)cc1 :: -41.3
O=S1(=O)N(Cc2ccccc2F)CCCN1Cc1c(F)cccc1Cl :: 7.29

Qu. Request the reported hERG current change (%, negative = inhibition) at 10uM associated with CC1(NC(=S)Nc2ccccc2)CCS(=O)(=O)C1 (centres unmarked)
Ans. 13.8

* * *

molecular target: human ether-à-go-go-related gene (hERG) potassium channel (human); assay: primary screen, population patch clamp on CHO cells stably expressing hERG; higher = less effect of the substance;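 further: peak tail current of the secondary pulse compared with the same well before compound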
Out of some 310,000 compounds screened, about 14,000 (4.5%) showed an effect of 50% or more. The effect is printed as a negative number. The sample as a whole holds a higher share of strong results than the screen did.
PROPERTY LABEL: hERG current change (%, negative = inhibition) at 10uM

Qu. Request the reported hERG current change (%, negative = inhibition) at 10uM associated with CCOC(=O)c1cnc2ccc(OC)cc2c1NCCN1CCOCC1
Ans. -48.5%

Qu. What about CCOC(=O)c1ccc2ncc(C(=O)OCC)c(NCCCN3CCOCC3)c2c1 ?
Ans. -47.3%

Qu. What about O=C(COC(=O)CCC(=O)c1cccs1)NC1CCCCC1 ?
Ans. 1.55%

* * *

target: human ether-à-go-go-related gene (hERG) potassium channel (human); test: primary screen, population patch clamp on CHO cells stably expressing hERG; higher = less effect of the substance;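 further: peak tail current of the secondary pulse compared with the same well before compound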
About 14,000 (4.5%) of roughly 310,000 compounds showed an effect of 50% or more. The effect is printed as a negative number. The sample holds strong results, similar compounds and a random draw of the others, so the mix is not that of the screen.
PROPERTY LABEL: hERG current change (%, negative = inhibition) at 10uM (%)
# number only, unit % dropped from output

Cc1nc(NC(CC(C)C)C(=O)O)c2nc(C)oc2n1 (stereo not drawn) :: -3.03
CCOc1ccc(N(C)S(=O)(=O)c2ccc(-c3ccc(=O)[nH]n3)s2)cc1 :: -15.6
Cc1cccc(C)c1NC(=O)CN(C)S(=O)(=O)c1ccc(-c2ccc(=O)[nH]n2)s1 :: -51.7

Qu. Request the reported hERG current change (%, negative = inhibition) at 10uM associated with N#Cc1ccccc1OCC(=O)Nc1cccc(S(=O)(=O)N2CCCC2)c1
Ans. 5.17

Qu. What about O=C(Nc1cc(-c2nc3ncccc3o2)ccc1Cl)c1ccc2c(c1)OCO2 ?
Ans. 10.2

Qu. What about Cc1ccc(N(C)S(=O)(=O)c2ccc(-c3ccc(=O)[nH]n3)s2)cc1C ?
Ans. 13.7

Qu. What about CC1(C)c2ccccc2N2CC(=O)NC21/C=C/c1ccco1 (stereo not drawn) ?
Ans. 2.9

Qu. What about COc1ccc(CCC(=O)Nc2cc(S(=O)(=O)N3CCOCC3)ccc2OC(C)C)cc1 ?
Ans. -34.8

Qu. What about Br.CC1(C)OC(c2ccccc2)=C/C(=C/C=Nc2ccccc2)O1 ?
Ans. -12.9
